Where these numbers come from: PubChem BioAssay (NCI)

# Test system: CCRF-CEM leukemia
# assayDetails: NCI-60 one-dose screen, 48 h (100 = growth as untreated, 0 = no growth, -100 = all killed)
# testSettings: 10 µM unless noted
About 83,000 compounds went through this panel and 20% of them were active in at least one assay; those are over-represented in the sample as a whole. Active and inactive are the calls of the source. The calls were made as follows: active = growth percent below 10; inactive = the rest.
assayEndpoint: growth

Before answering, review these 5 worked examples.
Cc1nc2sccn2c1-c1csc(Nc2ccccc2Cl)n1 : 48.6% (inactive)
O=C1N=C(c2c(-c3[nH]c(=O)c4ccc(Br)cc4c3O)c(O)c3ccccc3c2O)C(=O)c2cc(Br)ccc21 : 25.3% (inactive)
COc1ccc(/C=C/c2nc(N3CCOCC3)c3cc(F)c(F)cc3n2)cc1OC : 35.8% (inactive)
COc1cc2nc(SCc3cc(OC)c(OC)c(OC)c3)n(Cc3ccccc3)c(=O)c2cc1OC : 23% (inactive)
CNC(C)=O : 103% (inactive)

Hi! Can you tell me growth for each of these molecules?
1. O=C(CCCn1c(=O)c2sc3ccccc3c2n2nnc(-c3ccccc3)c12)NCCc1cnc[nH]1
2. Cc1ccc2c(c1)C(=O)C(c1c(-c3[nH]c(=O)c4ccc(C)cc4c3O)c(O)c3ccccc3c1O)=NC2=O
3. COc1ccc(C2=CC(c3ccc(Oc4ccnc5cc(Cl)ccc45)c(OC)c3)c3c(nc(OC)[nH]c3=O)N2)cc1 (stereo not given)
4. CCC(=O)Nc1ccccc1C#C/C=C\C#Cc1ccccc1SC

## Output
1. 42.6% (inactive)
2. 16.6% (inactive)
3. 26.8% (inactive)
4. 26.9% (inactive)

## Input Form field: reported growth of "CCCCC[C@@H]1Cc2cc(O)c(C(=O)O)c3c2[C@H](C[C@@]2(CCCO2)O3)O1"
## Output 94.5% (inactive)

----------
# Tested on: SR leukemia
# assayDetails: NCI-60 one-dose screen, 48 h (100 = growth as untreated, 0 = no growth, -100 = all killed)
# testSettings: 10 µM unless noted
Compounds without any hit were thinned out: in the full panel of roughly 83,000, 20% have a hit.
Assign growth to each entry below.
One number for each entry, in %.

Known results for compounds:
O=c1[nH]c(-c2cn(-c3ccc(Cl)cc3)nn2)nc2ccccc12 : 80.4
CC(=O)Nc1nc(C(=O)N2N=C(C)/C(=C/c3ccccc3)C2=O)cs1 : 90.7
COc1cc(C(=O)N2CCN(C(=O)c3ccco3)CC2)c(N)cc1OCc1ccccc1 : 86.5

For each of the items listed, what is its growth?
1. COc1ccc(C(=O)/C=C/c2cc(C(=O)c3cc(OC)c(OC)c(OC)c3)ccc2OC)cc1
2. CCN(Cc1ccccc1)c1ccc(SC#N)cc1
3. CCCCn1c(=O)c(C2CNC(=O)c3ccccc3N2)cc2ccccc21 (stereo not given)
4. COc1ccc(-c2nnc(COc3ccc(NC(=O)Nc4ccc(Cl)c(C(F)(F)F)c4)cc3F)o2)cc1
5. NC(=O)c1cccc(N2Cc3ccccc3OC3=C2C(=O)c2c(O)ccc(O)c2C3=O)c1

## Output
1: 6.69; 2: -9.48; 3: 102; 4: -30.1; 5: -5.71

For every listed record, write down its growth.
1. N#Cc1ccc(NC(=O)c2ccc3cccnc3c2O)cc1
2. Nc1c(C(=O)Nc2cccc(C(F)(F)F)c2)sc2nc3c(cc12)C(O)CCC3 (stereo not given)

## Output
1. 25.6
2. 24
